Recorded pEC50 values for a group of compounds are listed next.
test system: MV4-11; test: cells; set-up: species or system AML cell lines (8); Secondary HTS, 10-point dose-response in triplicate, Cell Titer Glo viability, four-parameter fit EC50; conditions: Homo sapiens, MV4-11, 72 h, read-out: MV4-11
pEC50: −log10 of the molar value.

Some solved entries appear below for comparison.
compound	observed measurement
CS(=O)(=O)N1CCN(Cc2cc3nc(-c4cccc5[nH]ncc45)nc(N4CCOCC4)c3s2)CC1 [Pictilisib]	< 5.00
CNC(=O)c1ccccc1Nc1nc(Nc2ccc(N3CCOCC3)cc2OC)ncc1Cl [SJ000822451, NVP-TAE226]	< 5.00
COc1cc(O)c2c(c1)/C=C/C[C@H](O)[C@H](O)C(=O)/C=C\C[C@H](C)OC2=O [SJ000773172, (5Z)-7-OXOZEAENOL]	< 5.00

Q: // Input: O=C(Nc1c[nH]nc1-c1nc2ccc(CN3CCOCC3)cc2[nH]1)NC1CC1 [AT9283] . Output its pEC50 only.
Result: < 5.00

Q: Dear colleague, please send me the reported pEC50 for c1ccc2c(-c3cnn4cc(-c5ccc(N6CCNCC6)cc5)cnc34)ccnc2c1 [SJ000834146, LDN-193189] when you can.
Result: 6.72

Q: Dear colleague, please send me the reported pEC50 for CNC(=O)c1c(F)cccc1Nc1nc(Nc2cc3c(ccn3C(=O)CN(C)C)cc2OC)nc2[nH]ccc12 [SJ000821585, GSK1838705A] when you can.
Result: < 5.00

Q: Give the measured pEC50 for Cc1ccc(NCCCc2ccccc2)c(N)c1 [SJ000834143, JSH-23]
Result: < 5.00

Q: Note pEC50 for the compound shown: Nc1ncnc2c1ncn2[C@@H]1O[C@H](C[C@@H](N)CC[C@H](N)C(=O)O)[C@@H](O)[C@H]1O [SINEFUNGIN]
Result: < 5.00

Q: Look up pEC50 of N[C@H](CCC(=O)N[C@@H](Cc1c[nH]c2ccccc12)C(=O)O)C(=O)O [SJ000795988, GOLOTIMOD] and report it.
Result: < 5.00

Q: Hello, please tell me recorded pEC50 for this one: COc1cccc2c1c(O)c(C(=O)N(C)c1ccc(C(F)(F)F)cc1)c(=O)n2C [TASQUINIMOD]
Result: < 5.00

Q: For the compound COc1cc2c(Nc3ccc(Br)cc3F)ncnc2cc1OCC1CCN(C)CC1 [VANDETANIB] , report pEC50.
Result: < 5.00

Q: Read off the recorded pEC50 for OC[C@H]1O[C@@H](n2cnc3c2NC=NC[C@H]3O)C[C@@H]1O [PENTOSTATIN]
Result: < 5.00
